- Tested on: neuromuscular junction
- Format: in vivo
- conditionNotes: equi-efficacious dose, rabbit, arterial blood pressure
- Protocol: In a large series of similar telaxants, the rabbit dose is typically 125% of that in mice. […] Male New Zealand white rabbits weighing between 2.5 and 3.4 kg were anesthetized with pentobarbital (30 mg/kg) and placed on their backs upon a 40° C. water filled temperature regulation pad. […] Direct arterial blood pressure was measured from the right common carotid artery. […]
Recorded measurements of BP (% change of pre-drug blood pressure), one per entry
parameter: BP (% change of pre-drug blood pressure) (% change)

{"molecule": "CC(=O)O[C@H]1C[C@@H]2CC[C@@H]3[C@H](CC[C@@]4(C)[C@H]3C[C@H]([N+]3(C)CCCCC3)[C@@H]4OC(C)=O)[C@@]2(C)C[C@@H]1[N+]1(C)CCCCC1", "unitInfo": "% change", "resultValue": 2.70}
{"molecule": "CC(C)CC(NC(=O)C(Cc1ccccc1)[N+](C)(C)C)C(=O)NCC[N+](C)(C)C.O=C([O-])C(F)(F)F.O=C([O-])C(F)(F)F (stereo not shown)", "unitInfo": "% change", "resultValue": -28.30}
{"molecule": "C[N+](C)(C)[C@@H](Cc1ccccc1)C(=O)NCCCCCCCCCCNC(=O)[C@H](Cc1ccccc1)[N+](C)(C)C", "unitInfo": "% change", "resultValue": -40.30}
{"molecule": "CC(=O)O[C@H]1C[C@@H]2CC[C@@H]3[C@H](CC[C@@]4(C)[C@H]3C[C@H]([N+]3(C)CCCCC3)[C@@H]4OC(C)=O)[C@@]2(C)C[C@@H]1N1CCCCC1", "unitInfo": "% change", "resultValue": 1.10}

----------
- System: neuromuscular junction
- Assay type: in vivo
- conditionNotes: equi-efficacious dose, rabbit
Label rule, in plain words: Duration (time from injection until train-of-four recovered to 75%) of 20 min and up is true, under 20 min is false.

{"compound": "CC(=O)O[C@H]1C[C@@H]2CC[C@@H]3[C@H](CC[C@@]4(C)[C@H]3C[C@H]([N+]3(C)CCCCC3)[C@@H]4OC(C)=O)[C@@]2(C)C[C@@H]1[N+]1(C)CCCCC1", "testSystem": "neuromuscular junction", "groupLabel": "true"}
{"compound": "COc1ccc(CC2c3cc(OC)c(OC)cc3CC[N+]2(C)CCC(=O)OCCCCCOC(=O)CC[N+]2(C)CCc3cc(OC)c(OC)cc3C2Cc2ccc(OC)c(OC)c2)cc1OC (centres unmarked)", "testSystem": "neuromuscular junction", "groupLabel": "false"}
{"compound": "CC(C)CC(NC(=O)C(Cc1ccccc1)[N+](C)(C)C)C(=O)NCC[N+](C)(C)C.O=C([O-])C(F)(F)F.O=C([O-])C(F)(F)F (centres unmarked)", "testSystem": "neuromuscular junction", "groupLabel": "false"}
{"compound": "C[N+](C)(C)[C@@H](Cc1ccccc1)C(=O)NCCCCCCCCCCNC(=O)[C@H](Cc1ccccc1)[N+](C)(C)C", "testSystem": "neuromuscular junction", "groupLabel": "false"}
{"compound": "CC(=O)O[C@H]1C[C@@H]2CC[C@@H]3[C@H](CC[C@@]4(C)[C@H]3C[C@H]([N+]3(C)CCCCC3)[C@@H]4OC(C)=O)[C@@]2(C)C[C@@H]1N1CCCCC1", "testSystem": "neuromuscular junction", "groupLabel": "false"}

----------
- Test system: neuromuscular junction
- Type: in vivo
- conditionNotes: equi-efficacious dose, rabbit
parameter: HR (% change from pre-drug heart rate) (% change)

{"molecule": "CC(C)CC(NC(=O)C(Cc1ccccc1)[N+](C)(C)C)C(=O)NCC[N+](C)(C)C.O=C([O-])C(F)(F)F.O=C([O-])C(F)(F)F (stereo not shown) [Compound D]", "parameter": "HR (% change from pre-drug heart rate)", "resultValue": 4.60}
{"molecule": "CC(=O)O[C@H]1C[C@@H]2CC[C@@H]3[C@H](CC[C@@]4(C)[C@H]3C[C@H]([N+]3(C)CCCCC3)[C@@H]4OC(C)=O)[C@@]2(C)C[C@@H]1[N+]1(C)CCCCC1 [pancuronium]", "parameter": "HR (% change from pre-drug heart rate)", "resultValue": 0.00}
{"molecule": "CC(=O)O[C@H]1C[C@@H]2CC[C@@H]3[C@H](CC[C@@]4(C)[C@H]3C[C@H]([N+]3(C)CCCCC3)[C@@H]4OC(C)=O)[C@@]2(C)C[C@@H]1N1CCCCC1 [vecuronium]", "parameter": "HR (% change from pre-drug heart rate)", "resultValue": -1.90}
{"molecule": "C[N+](C)(C)[C@@H](Cc1ccccc1)C(=O)NCCCCCCCCCCNC(=O)[C@H](Cc1ccccc1)[N+](C)(C)C [Compound C]", "parameter": "HR (% change from pre-drug heart rate)", "resultValue": -0.80}
